protocol notes: MMV: MTT Cytotoxicity Assay Day 7 pi of Assay #7 (compound washed out Day 1 pi), U87-CD4-CXCR4 cells, % cell death @ 5mM compound
Assay type: toxicity, cell-based
settings: human, u87-cd4-cxcr4, 5000 µM
quantity measured: % Cell Death
Response field accepts a number only; no unit should be typed.

As a guide, the following entries are already answered.
[[record]]
molecule = "COc1ccc2nc(C)cc(Nc3ccc(Cl)cc3)c2c1"
quantity_measured = "% Cell Death"
assay_value = 90

[[record]]
molecule = "O=C(Nc1ccc(C23CC4CC(CC(c5ccccc5)(C4)C2)C3)cc1)c1cccs1"
quantity_measured = "% Cell Death"
assay_value = 98

[[record]]
molecule = "Cc1nc2ccccc2c(O)c1CC=C(Cl)Cl"
quantity_measured = "% Cell Death"
assay_value = 20

[[record]]
molecule = "CCC(=O)Nc1nnc(Cc2ccc(OC)c(OC)c2)s1"
quantity_measured = "% Cell Death"
assay_value = -14

[[record]]
molecule = "Oc1ccc(C(=C(Cl)Cl)c2ccc(O)cc2)cc1"
quantity_measured = "% Cell Death"
assay_value = 36

[[record]]
molecule = "Cc1cc(Nc2ccc(OCc3ccccc3)cc2)nc2cc(O)ccc12"
quantity_measured = "% Cell Death"
assay_value = 6

[[record]]
molecule = "CCN(CC)CCNc1ccnc2cc(Cl)ccc12"
quantity_measured = "% Cell Death"
assay_value = -5

[[record]]
molecule = "CCOc1cc2c(cc1OCC)C(c1cc(C)c(O)c(C)c1)NCC2.Cl (stereo not drawn)"
quantity_measured = "% Cell Death"
assay_value = -10


Now consider the entry below.
Identify % Cell Death associated with the molecule "CN(C)c1ccc(N2C(N)=NC(N)=NC2(C)C)cc1"
12

###

The reader will find reported % Cell Death values listed item by item below.
protocol notes: MMV: MTT Cytotoxicity Assay Day 7 pi of Assay #11 (NO washout), U87-CD4-CXCR4 cells, % cell death @ 5mM compound
Assay type: toxicity, cell-based
settings: human, u87-cd4-cxcr4, 5000 µM
Response field accepts a number only; no unit should be typed.

As a guide, the following entries are already answered.
[[record]]
compound = "Cl.Cn1c(=O)n(C)c2cc(CNCCNc3ccnc4cc(Cl)ccc34)ccc21"
assay_value = 45

[[record]]
compound = "COc1ccc(C(=O)NC(c2ccccc2Cl)c2cc(Cl)c3cccnc3c2O)cc1 (stereo unspecified)"
assay_value = 6

[[record]]
compound = "CCc1ccc(Nc2cc(C)nc3nc(C)nn23)cc1"
assay_value = 93

[[record]]
compound = "Cc1ccc(-c2nc3ccccc3o2)cc1NCc1cc(Cc2ccccc2)ccc1O"
assay_value = 52

[[record]]
compound = "Clc1ccc2c(N3CCCC3)ccnc2c1"
assay_value = -37


Identify % Cell Death associated with the compound "COc1cccc(C=Cc2nc(=O)c3ccccc3o2)c1OC"
31

Identify % Cell Death associated with the compound "COc1ccc(-c2cc(=O)oc3c4c(ccc23)OCN(Cc2ccc(F)cc2)C4)cc1"
-26

Identify % Cell Death associated with the compound "c1ccc2c(NCCc3c[nH]c4ccccc34)c3ccccc3nc2c1"
42

###

protocol notes: MMV: MTT Cytotoxicity Assay Day 7 pi of Assay #10 (NO washout), U87-CD4-CCR5 cells, % cell death @ 5mM compound
Assay type: toxicity, cell-based
settings: human, u87-cd4-ccr5, 5000 µM
The reader will find reported % Cell Death values listed item by item below.
Response field accepts a number only; no unit should be typed.

As a guide, the following entries are already answered.
[[record]]
molecule = "COc1ccc2c(c1OC)C(=O)N1c3ccccc3N=C(c3ccc(C)cc3)CC21 (configuration not stated)"
quantity_measured = "% Cell Death"
assay_value = 78

[[record]]
molecule = "Cn1c(=O)c2cc(C(=O)NCCCN3CCCCCC3)sc2c2ccccc21"
quantity_measured = "% Cell Death"
assay_value = 23

[[record]]
molecule = "CCCCOC(=O)c1ccc(Nc2cc(C)nc3ccc(OC)cc23)cc1"
quantity_measured = "% Cell Death"
assay_value = 21


Identify % Cell Death associated with the molecule "COc1ccc(Nc2nc(NCc3ccccc3)c3ccccc3n2)cc1"
41

Identify % Cell Death associated with the molecule CCCCC(O)(c1ccc(Cl)cc1)C(CN1CCOCC1)c1ccc(Cl)cc1.Cl (configuration not stated)
17

Identify % Cell Death associated with the molecule "CCOC(=O)C1(Cc2ccccc2)CCN(Cc2cccc(OC)c2O)CC1"
21

###

protocol notes: MMV: MTT Cytotoxicity Assay Day 7 pi of Assay #7 (compound washed out Day 1 pi), U87-CD4-CXCR4 cells, % cell death @ 5mM compound
Format: toxicity, cell-based
settings: human, u87-cd4-cxcr4, 5000 µM
quantity measured: % Cell Death
Response field accepts a number only; no unit should be typed.

As a guide, the following entries are already answered.
[[record]]
compound = "N=c1c2ccccc2nnn1-c1cccc(C(F)(F)F)c1"
assay_value = 86

[[record]]
compound = "O=C1CC(O)(C(F)(F)C(F)(F)F)Oc2ccccc21 (stereo unspecified)"
assay_value = -15

[[record]]
compound = "COC(=O)c1ccc(Cl)c2c1C1C=CCC1C(c1cccc3ccccc13)N2 (stereo unspecified)"
assay_value = -20

[[record]]
compound = "COc1ccc(Nc2nc(NCc3ccccc3)c3ccccc3n2)cc1"
assay_value = -30


Identify % Cell Death associated with the compound "OCCNc1nc(Nc2ccc(Cl)c(Cl)c2)nc2ccccc12"
-3

Identify % Cell Death associated with the compound "c1ccc(-c2ccc(-c3nc4ccccc4[nH]3)cc2)cc1"
-19

Identify % Cell Death associated with the compound Nc1ccn([C@@H]2O[C@H](CO)[C@@H](O)[C@H]2O)c(=O)n1 [CYTIDINE]
24

Identify % Cell Death associated with the compound "O=C(NC1CCN(Cc2ccccc2)CC1)c1cc(-c2cccnc2)nc2ccc(Cl)cc12"
-10

Identify % Cell Death associated with the compound COc1ccc2c(c1OC)C(=O)N1c3ccccc3N=C(c3ccc(C)cc3)CC21 (stereo unspecified)
1

Identify % Cell Death associated with the compound Cc1ccc(C2CC(C(F)(F)F)n3nc(C(=O)N4CCN(C(c5ccccc5)c5ccccc5)CC4)cc3N2)cc1 (stereo unspecified)
62

Identify % Cell Death associated with the compound "CCOc1ccc(Nc2c3ccccc3nc3ccccc23)cc1.Cl"
42

###

The reader will find reported % Cell Death values listed item by item below.
protocol notes: MMV: MTT Cytotoxicity Assay Day 7 pi of Assay #10 (NO washout), U87-CD4-CCR5 cells, % cell death @ 5mM compound
Assay type: toxicity, cell-based
settings: human, u87-cd4-ccr5, 5000 µM
Response field accepts a number only; no unit should be typed.

As a guide, the following entries are already answered.
[[record]]
compound = "COc1ccccc1N1C(=N)SC(=Cc2ccc(OCc3ccccc3F)cc2)C1=O"
quantity_measured = "% Cell Death"
assay_value = 30

[[record]]
compound = "COc1cccc(O)c1CN1CCC2(CCCN(Cc3ccc(F)cc3)C2)C1 (stereo unspecified)"
quantity_measured = "% Cell Death"
assay_value = 7

[[record]]
compound = "COc1ccc(CCN2CCC(CN(C)Cc3cnn(-c4ccccc4)c3)CC2)cc1"
quantity_measured = "% Cell Death"
assay_value = 110

[[record]]
compound = "CCCCc1c(CCC)c(=N)c2ccccc2n1C.I"
quantity_measured = "% Cell Death"
assay_value = -4

[[record]]
compound = "CCOc1ccccc1CNC(=O)C1c2ccccc2C(=O)N(CC(C)C)C1c1cccs1 (stereo unspecified)"
quantity_measured = "% Cell Death"
assay_value = 20


Identify % Cell Death associated with the compound O=C(NCC1Cc2cccc(-c3ccncc3)c2O1)c1csc2c1CCCC2 (stereo unspecified)
17

Identify % Cell Death associated with the compound CCOC(=O)C1=C(C)N=c2sc(=Cc3cc(Cl)ccc3O)c(=O)n2C1c1ccc(OC)cc1 (stereo unspecified)
11

Identify % Cell Death associated with the compound COc1ccc(C2Sc3ccccc3N=C3C2=C(O)c2ccccc23)cc1 (stereo unspecified)
17

Identify % Cell Death associated with the compound CCN(CC)CCn1c(=N)n(CC(O)c2ccc(Cl)c(Cl)c2)c2ccccc21.Cl (stereo unspecified)
-29

Identify % Cell Death associated with the compound CCOc1cc2c(cc1OCC)C(c1cc(OC)c(O)cc1Cl)NCC2 (stereo unspecified)
25

Identify % Cell Death associated with the compound "CCCCCCc1cc2cc(-c3csc(C=Cc4ccccc4)n3)c(=O)oc2cc1O"
24

###

protocol notes: MMV: MTT Cytotoxicity Assay Day 7 pi of Assay #7 (compound washed out Day 1 pi), U87-CD4-CXCR4 cells, % cell death @ 5mM compound
Type: toxicity, cell-based
settings: human, u87-cd4-cxcr4, 5000 µM
quantity measured: % Cell Death

[[record]]
molecule = "CCCCOc1ccc(C(=O)Nc2cc(C)on2)cc1"
quantity_measured = "% Cell Death"
assay_value = -14

[[record]]
molecule = "O=C(Nc1ccc(Cl)c(Cl)c1)Nc1ccc(Cl)c(Cl)c1"
quantity_measured = "% Cell Death"
assay_value = 82

[[record]]
molecule = "Cc1ccc2c(C)nc(Nc3nc(C)cc(-c4ccccc4)n3)nc2c1"
quantity_measured = "% Cell Death"
assay_value = 97

[[record]]
molecule = "COc1cc(OC)cc(C(=O)Nc2ccc(-c3nc4ccccc4[nH]3)cc2)c1"
quantity_measured = "% Cell Death"
assay_value = 55

[[record]]
molecule = "O=C(c1ccccc1F)N(Cc1ccc(Cl)cc1)c1ccccn1"
quantity_measured = "% Cell Death"
assay_value = -34

[[record]]
molecule = "COc1ccc(C2Sc3ccccc3N=C3C2=C(O)c2ccccc23)cc1 (stereo unspecified)"
quantity_measured = "% Cell Death"
assay_value = -32

[[record]]
molecule = "CN(C)c1ccc(-c2nc3cc(N)ccc3[nH]2)cc1"
quantity_measured = "% Cell Death"
assay_value = -21

[[record]]
molecule = "CCN(CC)CCNc1ncnc2c1[nH]c1ccc(Br)cc12"
quantity_measured = "% Cell Death"
assay_value = -18


Identify % Cell Death associated with the molecule CCc1ccc(CNCC(O)c2ccccc2)cc1.Cl (stereo unspecified)
28

Identify % Cell Death associated with the molecule "CCCCCCc1cc2cc(-c3nc4ccccc4[nH]3)c(=Nc3ccccc3C)oc2cc1O"
-2

Identify % Cell Death associated with the molecule "CC(C)(C)c1ccc(C(=O)Nc2c3c(nn2-c2cccc(Cl)c2)CSC3)cc1"
-2
